test system: Peptoniphilus asaccharolyticus; assay: In vitro antibacterial activity was tested for Pepto asac PA 3-1; format: functional
Note to self: use class 1 only for MIC readings below 0.8 µg/mL; a reading exactly at 0.8 µg/mL still gets class 0.

MOLECULE	SYSTEM	ASSIGNED LABEL
CC1(CN)CCN(c2c(F)c(N)c3c(=O)c(C(=O)O)cn(C4CC4)c3c2F)C1 (stereo not drawn)	Peptoniphilus asaccharolyticus	class 1
CCNCC1CCN(c2c(F)cc3c(=O)c(C(=O)O)cn(C4CC4)c3c2OC)C1 (stereo not drawn)	Peptoniphilus asaccharolyticus	class 1
NCC1CCCN(c2c(F)cc3c(=O)c(C(=O)O)cn(C4CC4)c3c2F)C1 (stereo not drawn)	Peptoniphilus asaccharolyticus	class 1
COc1c(N2CCC(N)CC2)c(F)c(N)c2c(=O)c(C(=O)O)cn(C3CC3)c12	Peptoniphilus asaccharolyticus	class 0
COc1c(N2CC[C@H](N)C2)c(F)c(N)c2c(=O)c(C(=O)O)cn(C3CC3)c12	Peptoniphilus asaccharolyticus	class 0
COc1c(N2CCC(CN)C2)c(F)cc2c(=O)c(C(=O)O)cn(C3CC3)c12 (stereo not drawn)	Peptoniphilus asaccharolyticus	class 1
C[C@@H]1CN(c2c(F)cc3c(=O)c(C(=O)O)cn(C4CC4)c3c2F)C[C@H](C)N1	Peptoniphilus asaccharolyticus	class 0
COc1c(N2CC[C@@H](N)C2)c(F)cc2c(=O)c(C(=O)O)cn(C3CC3)c12	Peptoniphilus asaccharolyticus	class 1
CC1(CN)CCN(c2c(F)cc3c(=O)c(C(=O)O)cn(C4CC4)c3c2Cl)C1 (stereo not drawn)	Peptoniphilus asaccharolyticus	class 1
NC1CCCN(c2c(F)cc3c(=O)c(C(=O)O)cn(C4CC4)c3c2F)C1 (stereo not drawn)	Peptoniphilus asaccharolyticus	class 0
NC1CCCN(c2c(F)cc3c(=O)c(C(=O)O)cn(C4CC4)c3c2Cl)C1 (stereo not drawn)	Peptoniphilus asaccharolyticus	class 1
CC1(CN)CCN(c2cc3c(cc2F)c(=O)c(C(=O)O)cn3C2CC2)C1 (stereo not drawn)	Peptoniphilus asaccharolyticus	class 0
CC1(CN)CCN(c2nc3c(cc2F)c(=O)c(C(=O)O)cn3C2CC2)C1 (stereo not drawn)	Peptoniphilus asaccharolyticus	class 0
COc1c(N2CCNCC2)c(F)cc2c(=O)c(C(=O)O)cn(C3CC3)c12	Peptoniphilus asaccharolyticus	class 0
NC1CCN(c2c(F)cc3c(=O)c(C(=O)O)cn(C4CC4)c3c2F)C1 (stereo not drawn)	Peptoniphilus asaccharolyticus	class 1
NC1CCN(c2c(F)cc3c(=O)c(C(=O)O)cn(C4CC4)c3c2Cl)C1 (stereo not drawn)	Peptoniphilus asaccharolyticus	class 1
NC1CCN(c2cc3c(cc2F)c(=O)c(C(=O)O)cn3C2CC2)C1 (stereo not drawn)	Peptoniphilus asaccharolyticus	class 0
COc1c(N2CCN(C)CC2)c(F)cc2c(=O)c(C(=O)O)cn(C3CC3)c12	Peptoniphilus asaccharolyticus	class 0
C[C@@H]1CN(c2c(F)c(N)c3c(=O)c(C(=O)O)cn(C4CC4)c3c2F)C[C@H](C)N1	Peptoniphilus asaccharolyticus	class 1

----------
tested on: Cutibacterium acnes; experiment: In vitro antibacterial activity was tested for Propion acnes PA5-1; assay type: functional
QUANTITY MEASURED: MIC

COMPOUND	RESULT
COc1c(N2CC[C@H](N)C2)c(F)cc2c(=O)c(C(=O)O)cn(C3CC3)c12	0.4 µg/mL
CCOc1c(N2CCC(N)C2)c(F)c(N)c2c(=O)c(C(=O)O)cn(C3CC3)c12 (stereo not drawn)	3.1 µg/mL
COc1c(N2CCN(C)CC2)c(F)cc2c(=O)c(C(=O)O)cn(C3CC3)c12	0.4 µg/mL

The measured values listed here are drawn from ChEMBL document CHEMBL1128719.
